Target: SEQ ID NO 23, mutant of Zea mays bx9 glucosyl transferase (Zea mays, UniProt B4G072, A334K/F21Y/L194C/M279F/S117V)
Construct: His tag (C); made in house
Sequence (B4G072 whole entry F21Y/S117V/L194C/M279F/A334K): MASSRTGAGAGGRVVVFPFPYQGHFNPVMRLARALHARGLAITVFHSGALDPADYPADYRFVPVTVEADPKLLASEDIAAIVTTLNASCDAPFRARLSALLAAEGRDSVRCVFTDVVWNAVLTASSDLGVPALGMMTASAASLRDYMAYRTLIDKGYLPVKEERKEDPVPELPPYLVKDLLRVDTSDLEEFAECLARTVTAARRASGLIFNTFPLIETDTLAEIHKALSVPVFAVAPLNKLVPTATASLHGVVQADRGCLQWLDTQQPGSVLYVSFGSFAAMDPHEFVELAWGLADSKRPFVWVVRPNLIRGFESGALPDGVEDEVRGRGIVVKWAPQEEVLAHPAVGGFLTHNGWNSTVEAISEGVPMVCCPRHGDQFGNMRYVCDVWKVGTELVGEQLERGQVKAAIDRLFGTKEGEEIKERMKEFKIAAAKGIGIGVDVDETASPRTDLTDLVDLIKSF
Test: UDP-Glo glucosyl transferase assay, purified enzyme
Format: biochemical
Conditions: lower block, concentration printed only in upper block: V 0.300, VII 0.210; IV, VIII, XI, XXI, XX, XVIII, XVI, XV, XIV 0.200; others 1.000 mM
Experimental: Glucosyl transferase activity is assayed via measurement of acceptor substrate-dependent production of UDP from ultrapure UDP-glucose using the Promega UDP-Glo™ method and according to the manufacturer's instructions. Assays are run in 96 well microtiter plates. […]
Category scheme (Activity): low end (below 0.03 pmol/sec/pmol enzyme), middle (0.03 pmol/sec/pmol enzyme to below 0.2 pmol/sec/pmol enzyme), high end (0.2 pmol/sec/pmol enzyme or more)

CN1CC(O)N(c2nnc(C(C)(C)C)s2)C1=O (centres unmarked) :: low end
Cc1cnc(N2C(=O)N(C)CC2O)cc1C(F)(F)F (centres unmarked) :: high end
CC1C(=O)N(c2cc(C(F)(F)F)n(C)n2)C(O)[C@@H]1C (some centres unmarked) :: middle
C[C@@H]1C(=O)N(c2noc(C(C)(C)C)c2C#N)C(O)[C@H]1C (some centres unmarked) :: middle
CON1C(=O)N(c2cc(C(F)(F)F)c(Cl)cn2)C(O)C1C (centres unmarked) :: high end

Sort into band: CC1C(O)N(c2cc(C(F)(F)F)c(Cl)cn2)C(=O)N1C (centres unmarked)
high end

Consider next the compound CN1CC(O)N(c2cc(C(C)(C)C)ncn2)C1=O (centres unmarked) in the same way.
low end

Consider next the compound C[C@@H]1C(O)N(c2cc(C(C)(C)C)on2)C(=O)[C@@H]1C (some centres unmarked) in the same way.
low end

Consider next the compound Cc1cnc(N2C(=O)N(C)C(C)C2O)cc1C(F)(F)F (centres unmarked) in the same way.
high end

Consider next the compound CN1CC(O)N(c2cc(C(F)(F)F)c(Cl)cn2)C1=O (centres unmarked) in the same way.
high end
